Test: chemical genetic growth profiling, strain panel (AID 1159580);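 also: tested at 20 µM; growth read once vehicle control cultures reached saturation at 30 °C; 1 = growth at the plate median or of vehicle wells; lower values mean less growth of the strain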
Details: S. cerevisiae deletion strains, growth OD, locus YCL011C, strain gbp2, hits give low values
In all, about 5,500 compounds went through this assay and about 2,000 (36%) were called active. Roughly 18% stayed inconclusive and do not appear here. This is one part of the list.
test-readout: normalized growth
Keep the answer to the number alone.

// CN(C)CCC(c1ccc(Br)cc1)c1ccccn1 (stereo unspecified) : normalized growth value = 0.97

// "COc1cc(OC)c(OC)cc1C=O" : normalized growth value = 1

// CN[C@@H]1[C@H](OC2[C@H](O[C@H]3[C@H](O)[C@@H](O)[C@H](N=C(N)N)[C@@H](O)[C@@H]3N=C(N)N)O[C@@H](C)[C@]2(O)C=O)O[C@@H](CO)[C@H](O)[C@H]1O (stereo partly specified) : normalized growth value = 0.992

// "O=C(O)c1ccccc1C(=O)Nc1ccc(S(=O)(=O)Nc2nccs2)cc1" : normalized growth value = 0.978

// "CN1CCN(C2=Nc3ccccc3Oc3ccc(Cl)cc32)CC1" : normalized growth value = 0.978

// "Clc1ccc2c(c1)C(N1CCNCC1)=Nc1ccccc1O2" : normalized growth value = 0.988

These entries and their values trace back to PubChem BioAssay AID1159580.
